Give inhibition for every item shown.
# Measured on: Glucose transporter (Leishmania mexicana) (UniProt O61059)
# Measurement protocol: ST_JUDE_LEISH: Cytotoxicity at 2uM final concentration against transgenic Leishmania Mexicana promastigotes LmGT2 that are glucose transport deficient and complemented with the L. Mexicana glucose transporter 2. Activity is measured by DNA content using SYBR green in vitro
# Type: functional
Answers are plain numbers, in %.

Previously resolved entries follow.
INSERT INTO assay_data (compound, measure_name, measurement_unit, number) VALUES
  ('COc1ccc(Cc2nc(/N=C(\N)Nc3ccccc3)ccc2OC)cc1', 'inhibition', '%', -0.02),
  ('O=C(N[C@H](CC1CCCCC1)C(=O)NC1CCCc2ccccc21)c1ccc(O)c(-c2cccc([N+](=O)[O-])c2)c1 (some centres undefined)', 'inhibition', '%', 0.88),
  ('CNCC(C)(C)c1nc(-c2ccc(Cl)c(O)c2)c(-c2ccncc2)[nH]1', 'inhibition', '%', -3.28);

Please go through the list and note inhibition for each compound.
1. Oc1c(C=Nn2cnnc2)sc2ccccc12
2. COc1ccc(NC(=O)Nc2ccc(-c3cccc(-c4nc5cccc(C)c5[nH]4)c3)cc2)cc1
3. Cc1cccc(-c2cc3cc(Nc4ccnc5cc(-c6nccs6)ccc45)ccc3[nH]2)c1
4. O=C(c1cc2c(s1)-c1cccc(Cl)c1SC2)N1CCN(c2ccncc2)CC1
5. CCCCCCCN1CC[C@@H](CCCc2ccnc3ccc(OCCN4CCOCC4)cc23)[C@@H](CC)C1
6. Cc1ccccc1OCC(O)CN1CCC(C2CCN(CC(O)COc3ccccc3C)CC2)CC1 (centres undefined)
7. Cc1nn(C)cc1C(C)Nc1nncc(-c2ccc(C(F)(F)F)cc2)n1 (centres undefined)

1: 11.2; 2: -0.2; 3: 1.12; 4: 4.35; 5: 9.34; 6: 2.28; 7: 3.38

Hey, quick one: what's inhibition for each of these?
1. CCC1CN2CCc3c([nH]c4ccc(OC)cc34)C2CC1CC1NCCc2cc(OC)c(OC)cc21 (centres undefined)
2. CC[C@H](NC(=O)c1c(CN2CCC(N3CCCCC3)CC2)c(-c2ccccc2)nc2c(Cl)c(O)ccc12)c1ccccc1
3. CCN1CCC(N(Cc2ccc(-c3ccc(C(F)(F)F)cc3)cc2)C(=O)Cn2c(CCc3cccc(F)c3F)cc(=O)c3ccccc32)CC1
4. COc1ccc2nccc([C@@H](O)CN3CCC(NC(=O)c4ccc(C5(C(F)(F)F)N=N5)cc4)CC3)c2c1

4.05
6.04
-2.06
40.7

Batch lookup, inhibition per entry.
1. O=[N+]([O-])c1ccc(Nc2nc(N/N=C/c3cc(Cl)cc(Cl)c3O)nc(Nc3ccccc3)n2)cc1
2. COc1ccc2nccc([C@@H](O)CN3CCC(NC(=O)c4cccc(-c5cc(C)no5)c4)CC3)c2c1

1. 2.65
2. 0.08

* * *

# Measured on: Hexose transporter 1 (Plasmodium falciparum) (UniProt O97467)
# Measurement protocol: ST_JUDE_LEISH: Cytotoxicity at 2uM final concentration against transgenic Leishmania Mexicana promastigotes LmPfHT that are glucose transport deficient and complemented with the Plasmodium falciparum hexose transporter. Activity is measured by DNA content using SYBR green in vitro
# Format: functional
Hi there, I'd appreciate the recorded inhibition for every entry that follows.
Give bare numbers, in %.

Some solved entries appear below for comparison.
INSERT INTO assay_data (molecule, measure_name, measurement_unit, number) VALUES
  ('CC(C)CNCc1ccc(-c2cccc(-c3nc4ccccc4[nH]3)c2)cc1', 'inhibition', '%', 9.2),
  ('CCCCCCNC(=N)c1ccc(OCCCCCOc2ccc(C(=N)NCCCCCC)cc2)cc1', 'inhibition', '%', 59.4),
  ('CN(C)CCNCc1nc(-c2ccc3c(Nc4ccc(Oc5ccccc5)cc4)ccnc3c2)cs1', 'inhibition', '%', 1.8),
  ('NC1CCN(Cc2cccc(-c3ccc(-c4nc5cc(F)ccc5[nH]4)cc3)c2)C1 (centres undefined)', 'inhibition', '%', 1.25),
  ('Cc1ccc2nc(-c3ccc(C(=O)NCc4ccc(Cl)c(Cl)c4)cc3)[nH]c2c1C', 'inhibition', '%', 0.03);

Report inhibition for every entry below.
1. COc1cccc(CN2CCCN(Cc3cccc(NC(=O)c4ccc(-c5ccccc5)cc4)c3)CC2)c1
2. CCNc1cc(C(=O)N[C@@H](Cc2ccccc2)[C@H](O)CNCCC(C)(C)C)c(F)c(N2CCCCS2(=O)=O)c1
3. COc1ccc2nccc([C@@H](O)CN3CCC(CO)(NCc4cc5ccccc5o4)CC3)c2c1

0.27
-0.44
13.3

For Hexose transporter 1 (Plasmodium falciparum) (UniProt O97467), give inhibition of the listed molecule: CN(CCN1CCC(c2c[nH]c3ccccc23)CC1)c1ccc(-c2nc3cc(Cl)c(Cl)cc3[nH]2)cc1
0.16

* * *

# Measured on: Solute carrier family 2, facilitated glucose transporter member 1 (Homo sapiens)
# Measurement protocol: ST_JUDE_LEISH: Cytotoxicity at 2uM final concentration against transgenic Leishmania Mexicana promastigotes LmGLUT1 that are glucose transport deficient and complemented with the human glucose transporter GLUT1. Activity is measured by DNA content using SYBR green in vitro
# Type: functional
Measure name: inhibition (%)
Give bare numbers, in %.

INSERT INTO results (compound, measure_name, number) VALUES
  ('CC(C)C(=O)NC(Nc1ccc([N+](=O)[O-])cc1)C(Cl)(Cl)Cl (centres undefined)', 'inhibition', 3.83);

Your task in this section: give inhibition for each listed record.
1. Cc1[nH]c(C)c(-c2ccc(OCc3ccc(F)cc3)nc2)c(=O)c1Br
2. O=C(C=Cc1ccc(Cl)c(Cl)c1)NCCCCCN1CCC(CCNC(=O)/C=C/c2ccccc2)CC1
3. Nc1nccc2ccc(OC3CCCCC3)cc12
4. O=C(Nc1ccc(N2CCN(Cc3ccccc3Cl)CC2)cc1)c1ccc([N+](=O)[O-])o1
5. CCCCCCNC(=N)c1ccc(OCCCCCOc2ccc(C(=N)NCCCCCC)cc2)cc1

1. 2.71
2. 0.55
3. 0.26
4. 71.5
5. 58.5

The following compounds each have a reported value; give each one's inhibition.
1. O=C(Nc1ccc(Cl)cc1)Nc1ccc(-c2csc(-c3nc4ccccc4[nH]3)c2)cc1
2. Cc1c(Br)cc2nc(-c3ccc(C(=O)NC4CCN(Cc5ccccc5)CC4)cc3)[nH]c2c1C
3. COc1ccc(F)cc1-c1ccccc1CNC(=O)c1cnn(-c2ccc([N+](=O)[O-])cc2)c1C(F)(F)F

[0.59, 1.63, 2.16]

* * *

# Measured on: Hexose transporter 1 (Plasmodium falciparum) (UniProt O97467)
# Measurement protocol: ST_JUDE_LEISH: Cytotoxicity at 2uM final concentration against transgenic Leishmania Mexicana promastigotes LmPfHT that are glucose transport deficient and complemented with the Plasmodium falciparum hexose transporter. Activity is measured by DNA content using SYBR green in vitro
# Format: functional
Measure name: inhibition (%)
Give bare numbers, in %.

// worked examples, inhibition included
INSERT INTO results (compound, measured_on, measure_name, measurement_unit, number) VALUES
  ('COc1ccc(C(=O)CCC(=O)N(CCSC(C)(C)C)Cc2ccc(-c3ccc(CNCCc4ccc(S(C)(=O)=O)cc4)cn3)cc2)cc1F', 'Hexose transporter 1 (Plasmodium falciparum) (UniProt O97467)', 'inhibition', '%', 9.03),
  ('COC(=O)c1c(C#N)c(OC)cc(O)c1CSC[C@H](Nc1nc(-c2ccc([N+](=O)[O-])cc2)cs1)C(=O)NCCN1CCCCC1', 'Hexose transporter 1 (Plasmodium falciparum) (UniProt O97467)', 'inhibition', '%', 0.29),
  ('CC(C)(C)NC(=O)c1ccc(Oc2ccc(OC(F)(F)F)cc2)c(NC(=O)C(C)(C)C)c1', 'Hexose transporter 1 (Plasmodium falciparum) (UniProt O97467)', 'inhibition', '%', -1.32),
  ('COc1cc2c(cc1C(F)(F)F)N(C(=O)Nc1cc(F)c(F)c(-c3cccnc3)c1)CC2', 'Hexose transporter 1 (Plasmodium falciparum) (UniProt O97467)', 'inhibition', '%', 1.42),
  ('Cc1ccc(NC(=O)NC2CCN(CCCCCNC(=O)/C=C/c3ccc(Cl)c(Cl)c3)CC2)cc1', 'Hexose transporter 1 (Plasmodium falciparum) (UniProt O97467)', 'inhibition', '%', 1.16),
  ('CC1(C)C(=O)Nc2ccccc2N1C(=O)CN1CCN(c2ccccc2O)CC1', 'Hexose transporter 1 (Plasmodium falciparum) (UniProt O97467)', 'inhibition', '%', -0.55),
  ('COc1cc(C2NCC3(CCOCC3)c3cc4c(cc32)OCCO4)cc(OC)c1OC (stereo not drawn)', 'Hexose transporter 1 (Plasmodium falciparum) (UniProt O97467)', 'inhibition', '%', 6.69),
  ('O=c1c2cccnc2sn1-c1ccccc1', 'Hexose transporter 1 (Plasmodium falciparum) (UniProt O97467)', 'inhibition', '%', 0.87),
  ('COc1ccc(Nc2nccc(-c3cccc(NC(=O)c4cc5cc(F)ccc5[nH]4)c3)n2)cc1', 'Hexose transporter 1 (Plasmodium falciparum) (UniProt O97467)', 'inhibition', '%', 0.11),
  ('CN(CCCCNC(=O)c1ccc(-c2ccccc2)cc1)C1CCc2c(O)cccc2C1 (stereo not drawn)', 'Hexose transporter 1 (Plasmodium falciparum) (UniProt O97467)', 'inhibition', '%', 2.13);

Quick request: inhibition for each listed item, please.
1. CC(C)c1cc(N)c2cc(NC(=O)COCC(=O)Nc3ccc4nc(C(C)C)cc(N)c4c3)ccc2n1
2. COc1ccc(C2N=C(N)N=C(N)N2OCc2ccccc2)cc1OC (stereo not drawn)
3. N#Cc1cccc(Nc2nccc(NCC(O)c3ccccc3C(F)(F)F)n2)c1 (stereo not drawn)
4. C=CC[C@H](C[C@H](O)[C@H](Cc1ccccc1)NC(=O)c1nn(-c2ccccc2)nc1C)C(=O)NC1CCCCC1
5. O=C(NC1CCN(Cc2ccccc2O)C1)c1ccc(Cl)c(Cl)c1 (stereo not drawn)
6. Cc1nc2ccccc2c(=O)n1/N=C/c1ccccc1[N+](=O)[O-]

[5.67, 2.45, 7.25, 2.34, 0.7, 1.45]

For every listed record, write down its inhibition.
1. N#Cc1cccc(C(=O)Nc2ccc(-c3nc4ccccc4[nH]3)cc2)c1
2. CN(C)c1ccc(CN2CCCC(CNC(=O)c3ccc(-c4cccc(C(F)(F)F)c4)s3)C2)cc1 (stereo not drawn)

1: -0.34; 2: 1.64

Hi, could you look up inhibition for each item in my list?
1. COc1ccccc1C1CCN(CCCCNC(=O)c2ccc(/C=C/c3cc(Cl)cc(Cl)c3)cc2)CC1
2. O=C(Nc1cccc(C(F)(F)F)c1)c1cccc(S(=O)(=O)NC2CCCN(CC3CCCCC3)C2)c1 (stereo not drawn)
3. CN1CCN(CCCN(Cc2ccc(-c3ccc(CNCCc4ccccc4)cc3)cc2)C(=O)c2cccs2)CC1
4. O=[N+]([O-])c1ccc(N/C(=N\c2ccccc2Br)NC2CCCc3ccccc32)c(O)c1 (stereo not drawn)

[2.81, 0.03, 1.19, -1.02]

Consider the following items and state reported inhibition for each.
1. Nc1nc(NCC2CCC(CNS(=O)(=O)c3cccc4ccccc34)CC2)nc2ccccc12 (stereo not drawn)
2. COc1ccc2nccc([C@@H](O)CN3CCC(NCc4nc5c(cc4Cl)OCC(=O)N5)C(F)C3)c2c1 (stereo partly drawn)
3. CC(C)C1=NC(=O)c2cc([N+](=O)[O-])ccc2CN1
4. CCCCC(=O)NC(c1cccs1)c1cc(Cl)c2cccnc2c1O (stereo not drawn)

1: 3.12; 2: 0.56; 3: 1.79; 4: 8.32

For each listed entry, give its inhibition.
1. CC(C)c1cccc(OCC2CCN(c3ncc(C(=O)NC4CC4)cc3Cl)CC2)c1
2. CCC[C@@H]([C@@H](CC1CCCCC1)C(=O)N[C@H](C(=O)Nc1nccs1)C(C)(C)SCCOCCOCC)N(O)C=O
3. COc1cc(OCCCCCCON2C(=N)N=C(N)NC2(C)C)cc(OC)c1OC
4. Cc1ccc(NC(=O)c2ccc(CN3CCCN(CCC(C)C)CC3)cc2)cc1C

1. -0.04
2. 5.16
3. 8.02
4. 14.9

Batch lookup, inhibition per entry.
1. CCCNC(=O)c1cncc(-c2ccc(CNC(CC)c3ccccc3)cc2)c1 (stereo not drawn)
2. NC(=O)c1sc(-n2cnc3ccc(C(=O)NCCN4CCOCC4)cc32)cc1OCc1ccccc1C(F)(F)F
3. CC(C)OCCCNC(=O)c1nc(-c2cccc(C(F)(F)F)c2)sc1C(C)C
4. Nc1cc2c(C3CCN(CC4CCN(C(=O)/C=C/c5ccc(Cl)c(Cl)c5)CC4)CC3)c[nH]c2cn1
5. Cc1cc(N[C@@H](CC(C)C)C(=O)Nc2ccccc2)nc(NCc2ccccc2C)n1
6. CCCCN(CCCC)CCCN(CCCN(CCCC)CCCC)c1cc(C)nc(Nc2ccc(Cl)cc2)n1

1: 0.28; 2: -0.6; 3: 4.03; 4: 0.67; 5: 8.35; 6: 0.22

Hello, I would appreciate it if you could give inhibition for each entry below.
1. CCCCCc1ccc(N2C(N)=NC(N)=NC2(C)C)cc1
2. CCCc1cc(Cc2cnc(N)nc2N)ccc1OCCCCCC(=O)O

2.87
2.24
